- tested_target: NS3h 1b (J4)
- test_protocol: NS3 helicase inhibition across HCV genotypes – biochemical, real-time fluorescence, genotypes 1b J4, 1b con1, 2a JFH1, selectivity assay, late-stage follow-up (AID 485301)
- setup_conditions: NS3 helicase unwinding, Cy5 molecular beacon fluorescence
Active and inactive are the calls of the source.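 Rule for the calls: active = IC50 of 10 µM or less against the helicase of at least one HCV strain tested; inactive = the rest.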
measured_quantity: IC50

molecule: COc1cccc(-n2c(SCc3cc(=O)oc4cc(O)c(O)cc34)nc3ccccc3c2=O)c1
measured_quantity: IC50
result_value: > 500 µM (inactive)
--
molecule: COc1cc(C2C(C(=O)c3ccc(C)o3)=C(O)C(=O)N2c2cc(C)on2)ccc1OCc1ccccc1 (stereo not drawn)
measured_quantity: IC50
result_value: > 500 µM (inactive)
--
molecule: Cc1ccc(C(=O)C2=C(O)C(=O)N(Cc3ccco3)C2c2cccc(Cl)c2)o1 (stereo not drawn)
measured_quantity: IC50
result_value: > 500 µM (inactive)
--
molecule: CCOc1cccc(C2C(C(=O)c3ccc(C)o3)=C(O)C(=O)N2Cc2ccccc2)c1 (stereo not drawn)
measured_quantity: IC50
result_value: > 500 µM (inactive)
--
molecule: CCCCCOc1ccc(C2C(C(=O)c3ccc(C)o3)=C(O)C(=O)N2c2cc(C)on2)cc1 (stereo not drawn)
measured_quantity: IC50
result_value: > 500 µM (inactive)

For every item in the list below, what is its measured IC50?
1. COc1ccc(C=NNC(=O)c2cc(O)c(O)c(O)c2)cc1COc1ccc(C(=O)OCC(C)C)cc1
2. COc1ccc(/C=N/NC(=O)c2cc(O)c(O)c(O)c2)cc1COc1ccc(C(=O)OCC(C)C)cc1
3. Cc1cc(N2C(=O)C(O)=C(C(=O)c3ccc(C)o3)C2c2ccc(OCc3ccccc3)cc2)no1 (stereo not drawn)

> 500 µM (inactive)
> 500 µM (inactive)
> 500 µM (inactive)

The measurements presented in this section are drawn from PubChem BioAssay AID485301.
